Reference source for all entries: PubChem BioAssay AID743279

Assay: qHTS for Inhibitors of Inflammasome Signaling: IL-1-beta AlphaLISA Primary Screen; also: % is scaled to controls: 0 for no effect and ±100 for the full control effect
Conditions: THP-1 LPS/ATP IL-1B secretion, 16 h; at 57.5 µM, hits give low values
Out of some 360,000 compounds screened, about 17,000 (4.7%) were called active. Roughly 5% stayed inconclusive and do not appear here. Only a selection was taken, and actives are over-represented in it overall.
endpoint-name: activity change

Here's what some known entries look like.
- compound: "COc1ccc2sc(-c3ccccc3OC)c(-c3ccc(OCCN4CCCC4)cc3)c2c1"
  experimental-result: "-51% (active)"
- compound: "NC(c1csc(NC(=O)Nc2cccc(C(F)(F)F)c2)n1)C1CCCCC1 (configuration not stated)"
  experimental-result: "-111% (active)"
- compound: "CCNC(=S)NNC(=O)C1CCN(Cc2ccccc2)CC1"
  experimental-result: "-12.8% (inactive)"
- compound: "Cc1ccc(S(=O)(=O)N(C)c2ccc(OCC(=O)NC3=NCCS3)cc2)cc1"
  experimental-result: "23% (inactive)"

Task: Reported activity change, compound "COc1ccccc1-c1sc2ccccc2c1-c1ccc(Br)nc1" : ____
Result: 26.6% (inactive)

Task: What do you get for "COc1ccc(NC(=O)C(=O)NCC(=O)Nc2cccc(C(F)(F)F)c2)cc1" ?
Result: 10.7% (inactive)

====

Documented activity change across a set of compounds
Experiment: qHTS for Inhibitors of Inflammasome Signaling: IL-1-beta AlphaLISA Primary Screen
Settings: THP-1 LPS/ATP IL-1B secretion, 16 h; at 57.5 µM, hits give low values
In all, about 360,000 compounds went through this assay and about 17,000 (4.7%) were called active. Not shown: some 5% with an inconclusive outcome. The list comes from a sample in which actives are over-represented; it also holds close analogues and randomly drawn compounds.
Hi! Could you send only the number? It should be in %, unit omitted.

Here's what some known entries look like.
- compound: "CN(C)CCCN1C(=O)CSC1c1ccc([N+](=O)[O-])cc1 (stereo not given)"
  activity change, %: 36.5
- compound: "COC1C(CO)OC(n2cnc3c(=S)nc(N)[nH]c32)C1O (stereo not given)"
  activity change, %: 2.88
- compound: "CCc1nc(Nc2ccc(NC(C)=O)cc2)c2oc3ccccc3c2n1"
  activity change, %: -1.52
- compound: "C[C@H]1CN([C@@H](C)CO)C(=O)CCCn2cc(nn2)CO[C@@H]1CN(C)S(=O)(=O)c1ccc(-n2cccn2)cc1"
  activity change, %: -21.5

We next turn to a different compound, shown below.
Task: Reported activity change, compound "CC(=O)Nc1ccc(Nc2c3ccccc3nc3ccccc23)cc1" : ____
Result: -98.2

====

Documented activity change across a set of compounds
Assay: qHTS for Inhibitors of Inflammasome Signaling: IL-1-beta AlphaLISA Primary Screen
Conditions: THP-1 LPS/ATP IL-1B secretion, 16 h; at 57.5 µM, hits give low values
Among all 360,000 compounds or so, about 17,000 (4.7%) were called active. About 5% were inconclusive and are not listed. The list comes from a sample in which actives are over-represented; it also holds close analogues and randomly drawn compounds.
Hi! Could you send only the number? It should be in %, unit omitted.

Here's what some known entries look like.
- smiles-notation: "Cc1cccc(C(=O)N2CCN(S(=O)(=O)N3CCCCC3)CC2)c1"
  readout-unit: "%"
  experimental-result: 0
- smiles-notation: "COc1ccc(-c2cc(NC=O)c3ncc(-c4cc(OC)c(OC)c(OC)c4)n3c2)c(OC)c1"
  readout-unit: "%"
  experimental-result: 39.1

Task: Reported activity change, compound "CC(=O)Nc1cc(-c2cccc(CO)c2)cn2c(-c3cccc(C(F)(F)F)c3)cnc12" : ____
Result: -13.6

Task: What do you get for "CC(=O)c1cccc(-c2cnc3c(NC=O)cc(-c4ccccc4Oc4ccccc4)cn23)c1" ?
Result: 98.2

Task: What do you get for "CC(=O)c1ccc(-c2cnc3c(NC=O)cc(-c4cccc(NS(C)(=O)=O)c4)cn23)cc1" ?
Result: -68.2

Task: What do you get for "CC(=O)c1cccc(-c2cnc3c(NC=O)cc(-c4cccc(C(=O)N(C)C)c4)cn23)c1" ?
Result: 107

Task: What do you get for "Cc1cccc(C)c1N1CCN(S(=O)(=O)N2CCCCC2)CC1" ?
Result: -53.3

Task: What do you get for "COc1ccc(-c2cc(NC=O)c3ncc(-c4ccccc4)n3c2)cc1OC" ?
Result: -59.3

Task: What do you get for "C[n+]1cccc(C(=O)O)c1" ?
Result: -10.8

Task: What do you get for "CN(C)CCNC(=O)c1cccc(-c2cnc3c(NC=O)cc(-c4cccc(C(F)(F)F)c4)cn23)c1" ?
Result: -107
